# assay explanation: chemical genetic growth profiling, strain panel (AID 1159580);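 also: tested at 20 µM; growth read once vehicle control cultures reached saturation at 30 °C; 1 = growth at the plate median or of vehicle wells; lower values mean less growth of the strain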
# condition: S. cerevisiae deletion strains, growth OD, locus YDL101C, strain DUN1, hits give low values
Out of some 5,500 compounds screened, about 2,000 (36%) were called active. Not shown: some 18% with an inconclusive outcome. The list shows a part of the results.
measure name: normalized growth

1. O=C(O)CSCc1ccccc1    1.02
2. COC(=O)c1ccc(Cl)cc1NS(=O)(=O)c1ccc(OC)c(OC)c1    0.987
3. C=C[C@@](C)(O)CCC1C(=C)C[C@H](OC(C)=O)C2C(C)(C)CCCC12C (stereo partly specified)    1.01
4. CC1(C)CCC[C@@]2(C)C1[C@@H](O)C[C@]1(C)C2CC[C@@H]2[C@@]3(C)CC[C@H](C(C)(C)O)[C@@H]3CC[C@@]21C (stereo partly specified)    1
5. C[C@@H]1CC(Cl)CC[C@H]1C(=O)OC(C)(C)C (stereo partly specified)    0.985
6. O=C1CCC(N2C(=O)c3ccccc3C2=O)C(=O)N1 (stereo unspecified)    1.02
7. O=C(Nc1cccc(C(F)(F)F)c1)c1cncc(C#Cc2ccccc2)c1    0.987
8. CCCN(CCC)C(=S)NC(=O)c1cccc([N+](=O)[O-])c1    0.968
9. C[C@@H]1O[C@@H](O[C@H]2[C@H](Oc3cc(O)c4c(=O)cc(-c5ccc(O)cc5)oc4c3)O[C@H](CO)[C@@H](O)[C@@H]2O)[C@H](O)[C@H](O)[C@H]1O    0.998
10. COc1ccc(-c2coc3cc(O)ccc3c2=O)c(OC)c1    1
11. COc1ccccc1-c1coc2cc(O)ccc2c1=O    0.995

* * *

# assay explanation: chemical genetic growth profiling, strain panel (AID 1159580);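 also: tested at 20 µM; growth read once vehicle control cultures reached saturation at 30 °C; 1 = growth at the plate median or of vehicle wells; lower values mean less growth of the strain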
# condition: S. cerevisiae deletion strains, growth OD, locus YLR320W, strain mms22, hits give low values
The whole screen tested about 5,500 compounds, of which about 2,000 (36%) were called active. Inconclusive results (about 18%) are left out. This is one part of the list.
// normalized growth lookup, one value per entry
measure name: normalized growth

1. COc1ccc(-c2coc3cc(O)ccc3c2=O)c(OC)c1    1
2. COc1ccc(-c2coc3cc(O)ccc3c2=O)c(OC)c1O    0.979
3. C=C[C@@](C)(O)CCC1C(=C)C[C@H](O)C2C(C)(C)CCCC12C (stereo not given in full)    0.946
4. CNCCC(Oc1ccc(C(F)(F)F)cc1)c1ccccc1 (stereo not given)    0.968
5. COc1ccc(-c2coc3cc(O)ccc3c2=O)c(O)c1O    0.905

* * *

# assay explanation: chemical genetic growth profiling, strain panel (AID 1159580);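 also: tested at 20 µM; growth read once vehicle control cultures reached saturation at 30 °C; 1 = growth at the plate median or of vehicle wells; lower values mean less growth of the strain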
# condition: S. cerevisiae deletion strains, growth OD, locus YNL248C, strain rpa49, hits give low values
The campaign covered roughly 5,500 compounds. About 2,000 (36%) were called active. Inconclusive results (about 18%) are left out. Some of the results follow.
Form field: normalized growth (one value per entry).
measure name: normalized growth

1) O=c1c(-c2ccc(O)cc2)coc2cc(O)ccc12    0.97
2) O=C(O)c1cc2cc(F)ccc2[nH]1    0.969
3) CN(C)CCOC(c1ccc(Cl)cc1)c1ccccn1 (configuration not stated)    1.04
4) Cc1ccc(S(=O)(=O)NC(=O)NN2CCCCCC2)cc1    0.961
5) Cc1ccc(C(=O)Nc2ccc(S(=O)(=O)O)c3cc(S(=O)(=O)O)cc(S(=O)(=O)O)c23)cc1NC(=O)c1cccc(NC(=O)Nc2cccc(C(=O)Nc3cc(C(=O)Nc4ccc(S(=O)(=O)O)c5cc(S(=O)(=O)O)cc(S(=O)(=O)O)c45)ccc3C)c2)c1    1.06
6) CC[C@@]1(O)C[C@H](O[C@H]2C[C@H](N(C)C)[C@H](O)[C@H](C)O2)c2c(cc3c(c2O)C(=O)c2c(O)cccc2C3=O)[C@H]1C(=O)OC    0.309
7) O=C1NCC2(CCN(CCc3ccccc3)CC2)O1    1.01
8) Clc1ccc(C(OCCN2CCCCC2)c2ccccc2)cc1 (configuration not stated)    1.03
9) C=CCc1ccc(OC)cc1    0.952
10) COC(=O)[C@@H]1OC(=O)C2OC23[C@@]1(C)CCC1[C@]2(C)C(C[C@H](O)[C@]13C)C(C)(C)[C@H](OC(C)=O)C[C@@H]2OC(C)=O (some centres not stated)    1.01
11) O=C(c1ccc(OCCN2CCCCC2)cc1)c1c(-c2ccc(O)cc2)sc2cc(O)ccc12    0.986
12) COc1ccc(-c2coc3cc(O)ccc3c2=O)c(OC)c1O    1
